Assay: Pharmacokinetic analysis of plasma after intravenous and oral dosing
Conditions: female, CD-1, mouse, plasma, po, 200 mg kg^−1, Concentration; Time 2 h; individual animals; Supplementary Figure 12a
readout type: concentration at 2 h (ng/mL)
Numeric answer only, unit ng/mL assumed.

# concentration at 2 h of O=C(O)c1ccc(F)c(F)c1Nc1ccc(I)cc1F [PD315209, reference compound] = 2500

---

Assay: Pharmacokinetic analysis of plasma after intravenous and oral dosing
Conditions: female, CD-1, mouse, plasma, iv, 15 mg kg^−1, Concentration, Supplementary Figure 6a; Time 4 h; individual replicates
Each item that follows carries a reported concentration at 4 h.
Report only the number, with the unit ng/mL understood.

concentration at 4 h for O=C(O)c1ccc(F)c(F)c1Nc1ccc(I)cc1F [PD315209, reference compound] is 282

Kindly consider the entry below.
Memo: O=C(NOCCOCCOCCOCCC(=O)N1CCN(c2cnc3ccc(-c4cnc(Cl)c(NS(=O)(=O)c5ccc(F)cc5)c4)cc3n2)CC1)c1ccc(F)c(F)c1Nc1ccc(I)cc1F , reported concentration at 4 h: 83.2
